- System: S. aureus ATCC 33591
- assay.remarks: MIC and MBC against multidrug-resistant strains
- Type: cell-based
- experimental.parameters: Staphylococcus aureus, ATCC33591; S. aureus ATCC 33591; read-out: MBC
experimental.endpoint: MBC (µM)
Numbers only, in µM.

N=C(N)NS(=O)(=O)c1ccc(NC(=O)c2cc3ccccc3oc2=N)cc1    19.2
COc1ccc(/C=C(\C#N)C(=O)Nc2ccc(S(=O)(=O)NC(=N)N)cc2)cc1O    18.8
CCn1cc(C(=O)O)c(=O)c2cc(F)c(N3CCNCC3)cc21 [Norfloxacin, reference compound]    4.38

Hello, I would appreciate it if you could give MBC for each entry below.
1. N#Cc1c(-c2ccc(Cl)cc2)c(C#N)c(=O)n(-c2ccc(S(=O)(=O)NC(=N)N)cc2)c1N
2. COc1ccc(/C=C(\C#N)C(=O)Nc2ccc(S(=O)(=O)NC(=N)N)cc2)cc1
3. Cc1cc(C)n(-c2ccc(S(=O)(=O)NC(=N)N)cc2)c(=O)c1C#N

Key:
23.7
18.8
46.3
